Molecular target: Caf1 (Homo sapiens, UniProt Q9UIV1)
Sequence (Q9UIV1 whole entry): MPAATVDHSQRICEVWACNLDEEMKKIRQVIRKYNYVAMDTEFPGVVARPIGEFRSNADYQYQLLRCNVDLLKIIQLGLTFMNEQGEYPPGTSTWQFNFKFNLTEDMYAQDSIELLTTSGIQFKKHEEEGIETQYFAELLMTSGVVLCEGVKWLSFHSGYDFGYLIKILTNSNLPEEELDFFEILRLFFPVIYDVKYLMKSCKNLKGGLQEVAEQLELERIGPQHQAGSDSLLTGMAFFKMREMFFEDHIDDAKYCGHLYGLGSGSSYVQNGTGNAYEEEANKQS
Assay: Fluorescence-based biochemical assay of Caf1 ribonuclease activity
Settings: read-out: IC50 (Caf1); fluorescence-based biochemical assay; ± standard error of the mean (n = 3)
Measured Parameter: pIC50
One number for each entry, as −log10 of the molar value.

O=c1[nH]c2ncsc2c(=O)n1O [NSC-116567]    4.54

Look at each molecule and report its pIC50.
1. O=c1c2c(ncn2CCc2ccccc2)n(CCN2CCOCC2)c(=O)n1O [Compound 8k]
2. CCCCOCCCn1cnc2[nH]c(=O)n(O)c(=O)c21 [Compound 5g]
3. O=c1[nH]c2ncn(CCCc3ccccc3)c2c(=O)n1O [Compound 5f]
4. O=c1c2c(ncn2CCc2ccccc2)n(Cc2ccccc2)c(=O)n1O [Compound 8i]

Response line:
[5.06, 4.69, 4.88, 4.84]

Look at each molecule and report its pIC50.
1. CN(C)CCCn1c(=O)n(O)c(=O)c2c1ncn2CCc1ccccc1 [Compound 8j]
2. O=c1[nH]c2cccnc2c(=O)n1O [NSC-193557]
3. O=c1[nH]c2ncn(CCc3ccccn3)c2c(=O)n1O [Compound 5k]
4. Cn1c(=O)n(O)c(=O)c2c1ncn2CCc1ccccc1 [Compound 8a]

Response line:
[6.23, 3.28, 5.40, 5.03]

Look at each molecule and report its pIC50.
1. O=c1[nH]c2ncn(Cc3cccnc3)c2c(=O)n1O [Compound 5d]
2. O=c1[nH]c2cnn(-c3ccccc3)c2c(=O)n1O [NSC-104148]
3. O=c1[nH]c2ncn(Cc3ccccc3)c2c(=O)n1O [Compound 5a]
4. O=c1[nH]c2ncn(Cc3ccccn3)c2c(=O)n1O [Compound 5c]

Response line:
[5.18, 4.41, 4.98, 4.97]

Prompt line: Please give the measured pIC50 for this molecule: O=c1[nH]c2ncn(CCc3cccs3)c2c(=O)n1O [Compound 5h]
Response line: 5.44
